Reported Percent Effect values for the following compounds.
target: AMP-activated protein kinase, AMPK (Homo sapiens) (UniProt P54646+O43741+P54619+Q9UGJ0+Q9Y478+Q13131+Q9UGI9); assay: AMP-dependent Kinase enzyme assay. An in vitro enzyme assay that detects ADP turnover that is directly proportional to AMPK activity. This uses naive AMPK that is activated during the assay with MK-8722; type: functional; set-up: scale not given: direction of the effect not stated beside the values; conditions: 30 µM
READOUT LABEL: Percent Effect

compound=Cc1cc(=O)[nH]c(-n2nc(-c3ccccc3)cc2N)n1 experimental_result=-11.4%
compound=Cc1nc(CN(C)S(=O)(=O)c2ccc(F)cc2Br)no1 experimental_result=1.76%
compound="CCn1ncnc1C(C)Nc1cc(C2CCNCC2)nc(C)n1 (configuration not stated)" experimental_result=-7.46%
compound=Cc1cccn2cc(CN3CCC(N4CCN(C)C4=O)CC3)nc12 experimental_result=0.324%
compound=CCOc1ccc(CN(C)C(=O)c2nc(N3CCCC3)ncc2Cl)cc1 experimental_result=-1.93%
compound=CC(C)NC(=O)CN(C)C(=O)c1csc(Cc2ccccc2F)n1 experimental_result=5.04%
compound=CCN(C(=O)CS(=O)(=O)c1cc(OC)c(OC)cc1C)C1CC1 experimental_result=19.2%
compound=Cc1cccc(C(=O)Nc2c(C(N)=O)n[nH]c2C)c1C experimental_result=-0.641%
compound="CSc1nccc(N2CCC3(CCCN(Cc4cccc(C)c4)C3)C2)n1 (configuration not stated)" experimental_result=5.62%
compound=CC(C)OCCS(=O)(=O)N1CCN(Cc2cccn2C)CC1 experimental_result=-4.58%
compound=CCN(Cc1ccoc1)C(=O)Nc1ccccc1CN1CCOCC1 experimental_result=4.22%
compound=Cc1cc(CN(C)C(=O)Nc2ccccc2C)no1 experimental_result=9.79%

====

Listing of entries alongside the reported Percent Effect.
target: AMP-activated protein kinase, AMPK (Homo sapiens) (UniProt P54646+O43741+P54619+Q9UGJ0+Q9Y478+Q13131+Q9UGI9); assay: AMP-dependent Kinase enzyme assay. An in vitro enzyme assay that detects ADP turnover that is directly proportional to AMPK activity. This uses naive AMPK that is activated during the assay with MK-8722; type: functional; set-up: scale not given: direction of the effect not stated beside the values; conditions: 30 µM
READOUT LABEL: Percent Effect (%)

molecule="c1ccc(C2CN(C3CC3)CC3(CCN(Cc4cscn4)CC3)C2)cc1 (centres undefined)" readout_label="Percent Effect" experimental_result=4.81
molecule=O=C(COc1ccc(Cl)cc1)NCc1nncn1C1CC1 readout_label="Percent Effect" experimental_result=-8.68
molecule=Cc1cc(O)n2nc(C3CCN(C(=O)c4ccccn4)CC3)cc2n1 readout_label="Percent Effect" experimental_result=6.67
molecule=O=C(NCc1ccc(N2CCSCC2)cc1)NCc1cc[nH]n1 readout_label="Percent Effect" experimental_result=-0.457
molecule=CN1CCN([C@H]2CCN(C(=O)c3nn(C)cc3Cl)C[C@H]2CCCO)CC1 readout_label="Percent Effect" experimental_result=4.08
molecule=CN(Cc1ccc(-n2cccn2)cc1)C[C@@H]1CCCN2CCCC[C@H]12 readout_label="Percent Effect" experimental_result=5.54
molecule="CS(=O)(=O)N1CCN(c2cc(N3CCCC3CO)ncn2)CC1 (centres undefined)" readout_label="Percent Effect" experimental_result=-5.51
molecule=OC1CCN(C2CCN(c3ccc(Cn4ccnc4)cn3)CC2)CC1 readout_label="Percent Effect" experimental_result=-3.24
molecule=O=C1OCCCN1Cc1nc(-c2ccc(N3CCCCC3)cc2)no1 readout_label="Percent Effect" experimental_result=-1.59
molecule=CCCSCC(=O)NCc1cccc(CN(C)CC)c1 readout_label="Percent Effect" experimental_result=5.85
molecule="CN1CC(C(=O)NCc2ccc(Br)cc2F)CC1=O (centres undefined)" readout_label="Percent Effect" experimental_result=8.64
molecule="Cc1noc(C(C)N2CCN(Cc3noc(C4CC4)n3)CC2)n1 (centres undefined)" readout_label="Percent Effect" experimental_result=3.22
molecule=Cc1cc(CN(CC(N)=O)CC(C)C)on1 readout_label="Percent Effect" experimental_result=-2.52
molecule=CCOc1ccc(Br)cc1S(=O)(=O)N(CC)Cc1ccc(N(C)C)cc1 readout_label="Percent Effect" experimental_result=-7.47
molecule="COc1ccccc1-c1cccc(C2CCCN(C3CCOCC3)C2)n1 (centres undefined)" readout_label="Percent Effect" experimental_result=-7.08
molecule=CS(=O)(=O)NC(=O)c1ccn(-c2ccccc2Cl)n1 readout_label="Percent Effect" experimental_result=9.09
molecule=CN(CC(=O)NCCc1ccccn1)C(=O)c1cccs1 readout_label="Percent Effect" experimental_result=4.43
molecule=Cc1nnc(N2CCc3cncnc3C2)c(C#N)c1C readout_label="Percent Effect" experimental_result=-187
molecule="NC(=O)C(NC1CCN(CC2CCCCC2)CC1)c1ccc(F)cc1 (centres undefined)" readout_label="Percent Effect" experimental_result=-4.02
molecule=C[C@@H]1CN(CC(=O)NCc2ccccn2)C[C@]1(C)O readout_label="Percent Effect" experimental_result=8.43
molecule="CCc1ccc(C(=O)NC2CCCN(c3ccn(C)n3)C2=O)o1 (centres undefined)" readout_label="Percent Effect" experimental_result=-0.669
molecule=Cc1nc(CC(C)C)cc(C(=O)N2C[C@@H](N(C)C)[C@H](C(C)C)C2)n1 readout_label="Percent Effect" experimental_result=-4.31
molecule="O=C(NCCCn1ccnc1)C1COCC(=O)N1Cc1ccccc1 (centres undefined)" readout_label="Percent Effect" experimental_result=3.38
molecule=COC(=O)c1ccc(C(=O)NCc2ccco2)nc1 readout_label="Percent Effect" experimental_result=-1.39

Data origin, for the record: ChEMBL document CHEMBL3988442
